Target: ΔF508-CFTR (Homo sapiens, UniProt P13569, DEL508-508)
Construct: host or cells: CFBE41o-, doxycycline-inducible
Sequence (P13569 with tags, fused parts or gaps DEL508-508): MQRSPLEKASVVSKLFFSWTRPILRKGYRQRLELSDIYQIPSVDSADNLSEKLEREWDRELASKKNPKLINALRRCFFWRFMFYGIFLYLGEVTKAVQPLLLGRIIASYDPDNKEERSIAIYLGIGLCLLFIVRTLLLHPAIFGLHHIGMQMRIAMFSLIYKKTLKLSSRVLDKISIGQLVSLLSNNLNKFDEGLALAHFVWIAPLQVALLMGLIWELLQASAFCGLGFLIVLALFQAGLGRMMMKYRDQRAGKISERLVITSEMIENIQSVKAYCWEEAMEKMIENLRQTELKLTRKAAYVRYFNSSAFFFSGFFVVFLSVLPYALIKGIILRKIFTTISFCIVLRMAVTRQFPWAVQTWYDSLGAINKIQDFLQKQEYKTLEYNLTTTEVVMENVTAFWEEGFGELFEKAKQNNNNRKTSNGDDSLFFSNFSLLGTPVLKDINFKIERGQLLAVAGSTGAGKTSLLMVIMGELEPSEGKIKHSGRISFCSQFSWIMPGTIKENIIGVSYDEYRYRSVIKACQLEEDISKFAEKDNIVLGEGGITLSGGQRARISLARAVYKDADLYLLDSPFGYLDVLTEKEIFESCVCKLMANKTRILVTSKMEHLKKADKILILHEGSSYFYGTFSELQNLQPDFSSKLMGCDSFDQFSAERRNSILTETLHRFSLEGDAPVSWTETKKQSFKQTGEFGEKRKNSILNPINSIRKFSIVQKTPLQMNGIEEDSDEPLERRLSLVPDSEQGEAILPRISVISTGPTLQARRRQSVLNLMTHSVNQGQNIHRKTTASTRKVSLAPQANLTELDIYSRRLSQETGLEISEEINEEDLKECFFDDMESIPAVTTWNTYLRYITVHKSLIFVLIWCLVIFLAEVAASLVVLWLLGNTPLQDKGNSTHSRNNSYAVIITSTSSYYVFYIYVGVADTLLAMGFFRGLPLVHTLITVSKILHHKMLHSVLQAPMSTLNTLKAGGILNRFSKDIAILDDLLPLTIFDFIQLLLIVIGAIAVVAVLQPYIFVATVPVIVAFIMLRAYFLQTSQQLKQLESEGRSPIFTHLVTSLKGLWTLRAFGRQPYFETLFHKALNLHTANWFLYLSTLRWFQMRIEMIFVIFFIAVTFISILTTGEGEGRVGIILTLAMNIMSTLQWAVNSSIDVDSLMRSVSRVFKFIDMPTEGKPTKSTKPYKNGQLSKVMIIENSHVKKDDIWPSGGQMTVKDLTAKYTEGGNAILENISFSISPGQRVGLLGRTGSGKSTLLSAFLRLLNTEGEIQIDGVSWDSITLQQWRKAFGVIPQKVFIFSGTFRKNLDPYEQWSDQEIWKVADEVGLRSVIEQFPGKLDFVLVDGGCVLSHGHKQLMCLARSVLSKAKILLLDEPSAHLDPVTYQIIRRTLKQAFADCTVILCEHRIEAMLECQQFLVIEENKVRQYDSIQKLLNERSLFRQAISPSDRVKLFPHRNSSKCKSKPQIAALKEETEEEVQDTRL
Experiment: CFTR cell surface levels using HRP-tagged ΔF508-CFTR expressing CFBE cells, intrinsic corrector capacity
Assay type: cell-based
Design: concentration or dose not given beside the values
Conditions: HRP-tagged ΔF508-CFTR expressing CFBE41o- cells; compound alone (intrinsic corrector capacity); 20 hours at 33° C.
endpoint name: % Activation (%)
Your answer is read as %, so omit the unit and give the number.

COCC1CCN(c2cc(C(=O)NS(=O)(=O)CCN)nc3c2c(C2CCC2)nn3-c2ccccc2)CC1 [Compound 261]: 26.85
COCC1CCN(c2cc(C(=O)NS(C)(=O)=O)nc3c2c(C2CCC2)nn3-c2ccccc2)CC1 [Compound 185]: 331.6
CN(C)S(=O)(=O)NC(=O)c1cc(-c2ccc(N3CCC(C#N)CC3)nc2)c2c(C3CCC3)nn(-c3ccccc3)c2n1 [Compound 539]: 234.5
CC(C)c1nn(-c2ccccc2)c2nc(C(=O)NS(C)(=O)=O)cc(-c3ccc(N(C)C)cc3)c12 [Compound 7]: 245

Asked: % Activation lookup needed for Cc1nn(-c2ccccc2)c2nc(C(=O)NS(=O)(=O)C3CC3)cc(-c3ccc(N4CCOCC4)cc3)c12 [Compound 4] , thanks.
Given back: 246.7

Asked: Quick one: % Activation for CNS(=O)(=O)NC(=O)c1cc(N2CCC(N3CCOCC3)CC2)c2c(C3CCC3)nn(-c3ccc(F)cc3)c2n1 [Compound 517] ?
Given back: 320.5

Asked: Which % Activation is listed for CN(C)S(=O)(=O)NC(=O)c1cc(N2CCC(N3CCOCC3)CC2)c2c(C3CCC3)nn(-c3cccc(C(F)(F)F)c3)c2n1 [Compound 513] ?
Given back: 278.5
